- System: SK-MEL-28 melanoma
- assay procedure: NCI-60 one-dose screen, 48 h (100 = growth as untreated, 0 = no growth, -100 = all killed)
- conditions used: 10 µM unless noted
About 83,000 compounds went through this panel and 20% of them were active in at least one assay; those are over-represented in the sample as a whole.
attribute measured: growth (%)
Quick reminder: number only, in %, skip the unit.

Known growth results, listed for orientation:
> print(dat)
                            molecule.smiles  attribute.measured  recorded.number
1  O=C1c2cccc3cccc(c23)C(=O)N1N1C(=O)c2cccc3c(N4CCOCC4)ccc(c23)C1=O              growth              102
2  COc1ccc2c(O)c(/C=C3\N=Nc4ccccc43)oc2c1C[C@@H]1CCNC[C@H]1F              growth            -70.2
3  Cc1nc(-c2ccccc2)cc2c(O)c(C(=O)NN)[nH]c(=O)c12              growth              111
4  CS(=O)(=O)c1cccc(-c2c(-c3cccc(OS(N)(=O)=O)c3)nc3sccn23)c1              growth              112
5  CCOc1nc(-c2ccccc2)cc2c(O)c(C(=O)NN)[nH]c(=O)c12              growth             99.8

Shift focus to the following entry.
Task item: Requested read-out: growth. Entry: `CC(C)=NNc1ccccn1`
Reply: 57.1

---

- Test system: SNB-75 CNS
- assay procedure: NCI-60 one-dose screen, 48 h
- conditions used: 10 µM unless noted
The panel holds about 83,000 compounds, 20% with a hit somewhere; the sample as a whole holds those more often. Calls of active or inactive are those of the source. How the source made its calls: active means growth percent below 10; inactive means the rest.
Hello, when you answer, please use one of the following outcomes: True for active, False for inactive

> print(dat)
                            molecule.smiles  class.name
1  O=C(NNc1nccc(Nc2ccc(S(=O)(=O)Nc3ccncc3)cc2)n1)c1ccccc1       False
2  COP(=O)(OC)C(C)(C)CC(=O)CC(C#N)(C#N)C(C#N)C#N       False
3  O=C(CSc1nc2sc3c(c2c(=O)n1-c1ccccc1)CCCCC3)N/N=C/c1ccc(F)cc1        True
4  COCCNC(=O)c1ccc(-c2nc3ccc4[nH]ncc4c3c3c2CCCC3)cc1        True

Please turn your attention to the following entry.
Task item: Record request — test call for `N#C/C(=C\c1ccc(-c2ccc(Cl)cc2)o1)C(=O)Nc1ncc(Cc2ccc(Cl)cc2)s1`
Reply: True

---

- Tested on: BT-549 breast
- assay procedure: NCI-60 one-dose screen, 48 h (100 = growth as untreated, 0 = no growth, -100 = all killed)
- conditions used: 10 µM unless noted
This is part of a sample that, as a whole, favours compounds with a hit. Of some 83,000 tested, about 20% had one in any assay. Calls of active or inactive are those of the source. Rule for the calls: active = growth percent below 10; inactive = the rest.
attribute measured: growth

Reference set, count: 2
> print(dat)
                                   compound            result
1  COC(=O)c1n[nH]c2ccc3nc(-c4cn[nH]c4C(F)(F)F)c4c(c3c12)CCCC4  35.5% (inactive)
2  CCOC(=O)c1[nH]c(=O)c2c(C)nc(-c3ccccc3)cc2c1O   146% (inactive)

Task item: Would you mind telling me what growth value was observed for `O=C(O)/C(=C\c1ccc(Cl)cc1)c1ccc(Cl)cc1` ?
Reply: 82% (inactive)

Task item: Would you kindly repeat that for `C#CCOc1ccc2ncnc(Nc3cccc(NC(=O)C=C)c3)c2c1` ?
Reply: 46.6% (inactive)

Task item: Now the compound `CCCCC(=O)Nc1ncc(Cc2ccc(Cl)cc2)s1`
Reply: 65% (inactive)

Task item: Query `CCC(=C(c1ccc(OCCN2CCCC2)cc1)c1ccc(OCCN2CCCC2)cc1)c1ccc(Cl)cc1` next
Reply: 69.5% (inactive)

Task item: Input `Cc1ccc(-c2nc(/C=C3/C(=O)Nc4ccccc43)c3ccccn23)cc1`
Reply: 104% (inactive)

Task item: Next: `COc1cc(C(=O)n2nc(N3CCN(C)CC3)c3cc(N)ccc32)cc(OC)c1OC`
Reply: 27.9% (inactive)
